Cited source: the supplement of paper PMC13380429

System: Caco-2
EXPERIMENT: cell viability relative to DMSO; higher = less toxic
EXPERIMENTAL_SETUP: 72 h; 10 nM
RECORDED_ENDPOINT: cell viability (%)
One number for each entry, in %.

Hey, can you go through the list below and give me cell viability for every item?
1. CCCCCCCCCCCCOS(=O)(=O)O [dodecyl-sulfate]
2. CC(C)C(=O)c1c(C(C)C)nn2ccccc12
3. CCc1ccc(C2=CC(C)(C)Sc3ccc(C#Cc4ccc(C(=O)O)cc4)cc32)cc1
4. c1ccc2sc(SN3CCOCC3)nc2c1 [N-oxydiethylenebenzothiazole-2-sulfenamide]
5. CC[C@@H](C)c1ccc(NC(=O)Cn2cnc3c2c(=O)n(C)c(=O)n3C)cc1 (racemic)
6. CNC[C@H](O)c1ccc(O)c(O)c1 [epinephrine]
7. CCCCCCCCCCCCCCSCC(=O)O

Ans.
1: 99.5; 2: 89.9; 3: 103; 4: 92.6; 5: 90.1; 6: 105; 7: 104

I'm hoping you can list cell viability for every molecule here, please.
1. Cn1c(=O)cc(N2CCC[C@@H](N)C2)n(Cc2cc(F)ccc2C#N)c1=O
2. Nc1c(Br)cc(Br)cc1CN[C@H]1CC[C@H](O)CC1

Ans.
1: 98.9; 2: 92.8

I'm hoping you can list cell viability for every molecule here, please.
1. Cc1c(N(C)C)c(=O)n(-c2ccccc2)n1C
2. CC(=O)N[C@@H](Cc1c[nH]c2ccccc12)C(=O)OCc1cc(C(F)(F)F)cc(C(F)(F)F)c1
3. C[C@H]1NC(=O)NC1=O
4. CCCCOc1ccc(CC(=O)NO)cc1
5. N#Cc1c(O)c2c(-c3ccc(-c4ccccc4O)cc3)csc2[nH]c1=O

Ans.
1. 106
2. 92.8
3. 94.4
4. 89.5
5. 102

Can you give me cell viability for all of these, one by one?
1. Nc1ccc(S(=O)(=O)Nc2nccs2)cc1
2. Oc1ccc(Cl)cc1
3. N=C(N)SCc1ccc(B(O)O)cc1

Ans.
96.1
91.5
101

Provide the reported cell viability of each entry below, same order.
1. O.O=[Si]=O.O=[Si]=O.O=[Si]=O.O=[Si]=O.[O]=[Mg].[O]=[Mg].[O]=[Mg]
2. CN(C)CCOC1=Cc2ccccc2Sc2ccc(Cl)cc21 [zotepine]
3. O=C(Nc1ccc([N+](=O)[O-])cc1Cl)c1cc(Cl)ccc1O [niclosamide]

Ans.
102
84.1
102
